Give measured TGI for each item. Keep answers brief.
Tested on: U251 CNS
Assay: NCI tumour cell line growth inhibition, 48 h

Q. API: value(readout=TGI, system=U251 CNS) for record COc1ccc(-c2c(C(C)=O)c(C)n(C3OC(CO)C(O)C(O)C3O)c(=S)c2C#N)cc1 (centres undefined)
A. > 100 µM

Q. Identify the measured TGI of O=C1O/C(=C\c2ccc(O)cc2)C(c2ccc(O)c(Cl)c2)=C1Br for U251 CNS.
A. 34.5 µM

Q. Quick check: TGI on U251 CNS, item CN(Cc1nc2c(N)nc(N)nc2nc1N)c1ccc(C(=O)NC(CCC(=O)O)C(=O)O)cc1 (centres undefined) ?
A. > 100 µM

Q. API: value(readout=TGI, system=U251 CNS) for record Cc1c(-c2coc(-c3ccc(Cl)cc3)n2)c(=O)n(-c2ccccc2)n1C
A. > 100 µM

Q. Identify the measured TGI of O=C1N2CCc3c([nH]c4ccccc34)C23CC2CCCC12S3 (centres undefined) for U251 CNS.
A. > 50 µM

Q. Please tell me: TGI of COC(=O)c1ccc(OCc2ccc3nc(-c4ccccc4)c(Cl)nc3c2)cc1 , system U251 CNS?
A. > 100 µM

Q. # query: TGI | item CCCCCCCCCCCCNC(=O)[C@H]1CSC(c2ccc(OC)c(F)c2)N1 (some centres undefined) | system: U251 CNS
A. 3.66 µM

Q. Find the measured TGI: item COc1ccc(S(=O)(=O)Nc2ccc(-c3csc(N4C(=O)/C(=C/C=C\c5ccccc5)N=C4c4ccccc4)n3)cc2)cc1Cl , target or system U251 CNS.
A. 76.4 µM

Q. Fill in the recorded TGI for this molecule, with U251 CNS as test system: CCCCCCCCCCCCCCCC(=O)OCC1OC(n2ccc(N)nc2=O)C(O)C1O (centres undefined)
A. > 100 µM

Data origin: PubChem BioAssay (NCI)
